The measured values listed here are drawn from patent US12103915B2.

Catalogue of IC50 values
Tested on: NCI-H226 cells
Protocol notes: Cell growth assay (CellTiter-Glo)
Type: cell-based, human
Settings: 7 days treatment, CellTiter-Glo luminescence, read-out: H226 CTG IC50

{"columns": ["Compound", "IC50"],
 "data": [
  ["Cn1ncc2c(C3C[C@H]3C(=O)O)cc(-c3ccc(C(F)(F)F)cc3)cc21 (mixture of isomers) [Example 7]", "100 to 500 nM"]
]}

INPUT: Requested field: IC50. Item: Cn1ncc2c(C3C[C@H]3C(=O)O)cc(-c3ccc(C(F)(F)F)cc3)cc21 (mixture of isomers) [Example 8]
OUTPUT: 1000 to 30000 nM

====

Tested system: TEAD2 (Homo sapiens, UniProt Q15562)
Sequence (Q15562 whole entry, species assumed): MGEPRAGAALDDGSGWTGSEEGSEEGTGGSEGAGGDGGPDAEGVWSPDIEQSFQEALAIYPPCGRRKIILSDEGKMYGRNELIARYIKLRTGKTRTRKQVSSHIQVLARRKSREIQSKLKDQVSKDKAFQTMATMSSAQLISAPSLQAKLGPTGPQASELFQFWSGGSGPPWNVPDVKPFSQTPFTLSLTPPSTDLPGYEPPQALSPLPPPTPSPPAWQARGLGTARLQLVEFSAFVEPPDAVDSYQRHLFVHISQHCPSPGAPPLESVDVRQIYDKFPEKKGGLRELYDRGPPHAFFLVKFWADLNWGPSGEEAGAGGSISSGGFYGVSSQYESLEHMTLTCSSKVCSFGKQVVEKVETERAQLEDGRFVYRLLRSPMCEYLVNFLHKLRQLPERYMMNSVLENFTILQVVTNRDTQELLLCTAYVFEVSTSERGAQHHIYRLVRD
Protocol notes: Thermal shift assay TEAD2
Format: binding
Parameter: TEAD2 ΔTm (°C)

{"columns": ["Compound", "TEAD2 ΔTm, °C"],
 "data": [
  ["Cn1cc2cc(Oc3ccc(C(F)(F)F)cc3)cc(C3C[C@H]3C(=O)N3C[C@H]4C[C@@H]3C[C@H]4O)c2n1 (single isomer, unassigned) [Example 103e]", 9.1]
]}

A: CNS(=O)(=O)/C=C/c1cc(-c2ccc(C(F)(F)F)cc2)cc2c1cnn2C [Example 41]
B: Cn1cc2cc(Oc3ccc(C(F)(F)F)cc3)cc([C@@H]3C[C@H]3C(=O)N3CC[C@@H](O)[C@H](O)C3)c2n1 (single isomer, unassigned) [Example 75b]
INPUT: Hi team, can someone confirm which has the larger TEAD2 ΔTm: A or B ? Thanks. # answer = label of selected item
OUTPUT: B

====

Tested system: TEAD1 (Homo sapiens, UniProt P28347)
Sequence (P28347 whole entry, species assumed): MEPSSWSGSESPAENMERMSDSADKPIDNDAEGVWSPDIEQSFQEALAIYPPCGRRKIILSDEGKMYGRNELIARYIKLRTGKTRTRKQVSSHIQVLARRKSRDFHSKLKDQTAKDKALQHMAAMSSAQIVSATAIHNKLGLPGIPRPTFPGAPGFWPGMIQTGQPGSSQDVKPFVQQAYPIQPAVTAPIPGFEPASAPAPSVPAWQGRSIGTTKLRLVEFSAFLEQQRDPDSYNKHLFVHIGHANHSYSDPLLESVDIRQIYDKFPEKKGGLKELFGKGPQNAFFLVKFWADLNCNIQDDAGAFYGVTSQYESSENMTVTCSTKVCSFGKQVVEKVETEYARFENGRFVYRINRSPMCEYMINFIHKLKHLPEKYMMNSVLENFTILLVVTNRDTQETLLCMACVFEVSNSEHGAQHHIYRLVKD
Protocol notes: Thermal shift assay TEAD1
Format: binding
Method: Example B: Thermal Shift Assay 1) Prepare a fresh dilution of Protein Thermal Shift™ Dye (Applied Biosystems, 1000×) to 8× by […]. 2) To ensure the same DMSO concentration, the compounds were diluted as follows: Prepare 10 mM stock solution of compounds; The final DMSO concentration was 0.1% 10 μM: Diluting stock solution to 100 μM by using PBS. 1 μM: Diluting stock solution to 1 mM by using DMSO, then dilute to 10 μM by using PBS. […]
Parameter: TEAD1 ΔTm (°C)

Some solved entries appear below for comparison.
{"columns": ["Compound", "Reported"],
 "data": [
  ["Cn1cc2cc(O[C@H]3CC[C@@H](C(F)(F)F)CC3)cc([C@@H]3C[C@H]3C(=O)N3CC(O)C3)c2n1 (single isomer, unassigned) [Example 87a]", 4.9],
  ["[2H]C([2H])([2H])n1cc2cc(Oc3ccc(C(F)(F)F)cc3)cc([C@H]3C[C@@H]3C(=O)NC)c2n1 (single isomer, unassigned) [Example 76b]", 11.5],
  ["Cn1cc2cc(Oc3ccc(C(F)(F)F)cc3)cc([C@@H]3C[C@H]3C(=O)N3CC4CC3C(=O)N4)c2n1 (single isomer, unassigned)", 7.9],
  ["O=C(O)[C@@H]1CC1c1cc(Oc2ccc(C(F)(F)F)cc2)cc2cccnc12 (mixture of isomers)", 9.2],
  ["Cn1cc2cc(Oc3ccc(C(F)(F)F)cc3)cc([C@@H]3C[C@H]3C(=O)N3CCO[C@H](CO)C3)c2n1 (single isomer, unassigned)", 9.3]
]}

a: Cn1cc2cc(Oc3ccc(C(F)(F)F)cc3)cc([C@@H]3C[C@H]3C(=O)N[C@@H](CO)c3ccccn3)c2n1 (single isomer, unassigned) [Example 59b]
b: Cn1ncc2c(C3C[C@H]3C(N)=O)cc(-c3ccc(C(F)(F)F)cc3)cc21 (mixture of isomers)
c: CNC(=O)[C@@H]1CC1c1cc(-c2ccc(C(F)(F)F)cc2)cc2scnc12 (mixture of isomers)
d: CNS(=O)(=O)CCc1cc(N(C)c2ccc(C(F)(F)F)cc2)cc2cn(C)nc12
e: Cn1cc2nc(Oc3ccc(C(F)(F)F)cc3)nc([C@H]3C[C@@H]3C(=O)N3CC(O)C3)c2n1 (single isomer, unassigned) [Example 109b]
INPUT: Which order do these items take when sorted by rising TEAD1 ΔTm? List them. Please, when replying, give the labels in the order that was requested.
OUTPUT: c, e, d, b, a

A: [2H]C([2H])([2H])NC(=O)[C@H]1CC1c1cc(Oc2ccc(C(F)(F)F)cc2)cc2cn(C)nc12 (single isomer, unassigned)
B: CNS(=O)(=O)CCc1cc(N2CCC3(CCCC3)CC2)cc2cn(C)nc12
INPUT: I'd appreciate it if you could identify which of A and B has the greater TEAD1 ΔTm. Indicate your choice by writing its label.
OUTPUT: A
(A: 9.2 °C, B: 6.3 °C)

====

Tested system: TEAD3 (Homo sapiens, UniProt Q99594)
Sequence (Q99594 whole entry, species assumed): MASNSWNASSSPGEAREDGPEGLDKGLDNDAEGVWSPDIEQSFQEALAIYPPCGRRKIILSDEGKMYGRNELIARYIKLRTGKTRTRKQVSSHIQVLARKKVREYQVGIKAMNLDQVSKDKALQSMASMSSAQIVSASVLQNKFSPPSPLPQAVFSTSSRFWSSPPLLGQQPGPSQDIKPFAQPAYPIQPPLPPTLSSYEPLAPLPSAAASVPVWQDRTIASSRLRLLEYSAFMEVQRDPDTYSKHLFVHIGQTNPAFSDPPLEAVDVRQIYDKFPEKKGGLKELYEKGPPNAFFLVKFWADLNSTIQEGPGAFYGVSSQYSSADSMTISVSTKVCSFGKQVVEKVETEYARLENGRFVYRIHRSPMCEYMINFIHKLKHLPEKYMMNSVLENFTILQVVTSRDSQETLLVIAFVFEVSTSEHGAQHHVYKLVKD
Protocol notes: Thermal shift assay TEAD3
Type: binding
Procedure: Example B: Thermal Shift Assay 1) Prepare a fresh dilution of Protein Thermal Shift™ Dye (Applied Biosystems, 1000×) to 8× by […]. 2) To ensure the same DMSO concentration, the compounds were diluted as follows: Prepare 10 mM stock solution of compounds; The final DMSO concentration was 0.1% 10 μM: Diluting stock solution to 100 μM by using PBS. 1 μM: Diluting stock solution to 1 mM by using DMSO, then dilute to 10 μM by using PBS. […]
Parameter: TEAD3 ΔTm (°C)

{"columns": ["Compound", "TEAD3 ΔTm, °C"],
 "data": [
  ["Cn1cc2cc(Oc3ccc(F)c(F)c3)cc([C@@H]3C[C@H]3C(=O)N3CC(O)C3)c2n1 (single isomer, unassigned) [Example 90a]", 0.2]
]}

I: Cn1cc2cc(Oc3ccc(C(F)(F)F)cc3)cc(C3C[C@H]3C(=O)N3CCOC4(COC4)C3)c2n1 (single isomer, unassigned)
II: [2H]C([2H])([2H])n1cc2cc(Oc3ccc(C(F)(F)F)cc3)cc([C@H]3C[C@@H]3C(=O)NC)c2n1 (single isomer, unassigned) [Example 76b]
III: CNS(=O)(=O)CCCc1cc(-c2ccc(C(F)(F)F)cc2)cc2cn(C)nc12
IV: Cn1ncc2c(C3C[C@H]3C(N)=O)cc(Oc3ccc(C(F)(F)F)cc3)cc21 (mixture of isomers)
INPUT: Ascending by TEAD3 ΔTm, please: list the compounds accordingly. Put the labels in the requested order and list them out.
OUTPUT: III, I, IV, II

A: Cn1ncc2c(C3C[C@H]3C(=O)O)cc(-c3ccc(OC(F)(F)F)cc3)cc21 (mixture of isomers)
B: O=C(O)[C@@H]1C[C@H]1c1cc(Oc2ccc(C(F)(F)F)cc2)cc2c1NCCC2 (racemic)
C: CC(C)NC(=O)[C@@H]1C[C@H]1c1cc(-c2ccc(C(F)(F)F)cc2)cc2c1cnn2C (racemic)
D: [2H]C([2H])([2H])NC(=O)[C@@H]1C[C@H]1c1cc(Oc2ccc(C(F)(F)F)cc2)cc2cn(C)nc12 (single isomer, unassigned)
E: Cn1ncc2c(C3C[C@H]3C(=O)O)cc(OCc3ccc(C(F)(F)F)cc3)cc21 (mixture of isomers)
INPUT: Arrange by TEAD3 ΔTm, high to low. Write the labels, ordered according to the request.
OUTPUT: B, A, E, C, D
(B: 13.1 °C, A: 2 °C, E: 0.9 °C, C: 0.3 °C, D: −0.5 °C)

====

Tested system: TEAD3 (Homo sapiens, UniProt Q99594)
Protocol notes: Thermal shift assay TEAD3
Type: binding
Parameter: TEAD3 ΔTm (°C)

{"columns": ["Compound", "TEAD3 ΔTm / °C"],
 "data": [
  ["Cn1cc2cc(N3CCC4(CCCC4)CC3)cc(C3C[C@H]3C(=O)N3C[C@H](O)[C@@H](O)C3)c2n1 (single isomer, unassigned) [Example 86]", 0.2],
  ["CNS(=O)(=O)CCc1cc(N2CCC3(CCCC3)CC2)cc2cn(C)nc12 [Example 48]", 1.9],
  ["CNC(=O)[C@@H]1CC1c1cc(-c2ccc(C(F)(F)F)cc2)cc2scnc12 (mixture of isomers) [Example 39]", 0],
  ["Cn1cc2cc(Oc3ccc(C(F)F)cc3)cc([C@H]3C[C@@H]3C(=O)N3CC(O)C3)c2n1 (single isomer, unassigned) [Example 89b]", 8.8]
]}

a: CC(=O)NS(=O)(=O)CCc1cc(-c2ccc(C(F)(F)F)cc2)cc2cn(C)nc12 [Example 46]
b: CNC(=O)[C@@H]1CC1c1cc(-c2ccc(OC(F)(F)F)cc2)cc2cn(C)nc12 (mixture of isomers) [Example 33]
c: Cn1cc2cc(Oc3ccc(F)c(F)c3)cc([C@H]3C[C@@H]3C(=O)N3CC(O)C3)c2n1 (single isomer, unassigned) [Example 90b]
INPUT: Give the ascending ranking of the items by reported TEAD3 ΔTm. Answer format: the labels, ordered as requested.
OUTPUT: b, c, a
